# key: entry, value: IC50
subject.of.test: recombinant full length HPK-1 enzyme (Homo sapiens (Human))
procedure.summary: HPK-1 biochemical enzyme assay (ADP-Glo kinase inhibition)
condition.set: recombinant full length HPK-1 6.8 nM, 10 μM ATP, 12.5 μM MBP, 30 mins at 25° C.
Experimental: HPK-1 biochemical enzyme assay Compound inhibitory potency was measured in an HPK-1 kinase inhibition assay. […] Reactions were quenched and reaction mixtures were then analyzed by an ADP-Glo kit which measures the formed ADP. […] The compounds were dissolved in DMSO and evaluated at 10 concentrations to determine an IC50 value. […]

Ask | Report its IC50 with recombinant full length HPK-1 enzyme (Homo sapiens (Human)) as the test system: CNC(=O)N1CCN(c2ccc(NC(=O)c3c(Nc4cnc5c(c4C)NCCO5)cc[nH]c3=O)cc2)CC1
Reply | 10 to 100 nM

Ask | State IC50 on recombinant full length HPK-1 enzyme (Homo sapiens (Human)). Entry: Cc1c(Nc2cc[nH]c(=O)c2C(=O)Nc2ccc(N3CCN(c4cscn4)CC3)cc2)cnc2c1NCCO2
Reply | 10 to 100 nM

Ask | Fetch value of IC50 on recombinant full length HPK-1 enzyme (Homo sapiens (Human)) for COCC(C)N1CCN(c2ccc(NC(=O)c3c(Nc4cnc5c(c4C)NCCO5)cc[nH]c3=O)cc2)CC1 (stereo not shown) .
Reply | 10 to 100 nM

Ask | Give reported IC50 for Cc1c(Nc2cc[nH]c(=O)c2C(=O)Nc2ccc(N3CCN(C4COC4)CC3)c(F)c2)cnc2c1NCCO2 (recombinant full length HPK-1 enzyme (Homo sapiens (Human)))
Reply | ≤ 10 nM

Ask | Find IC50 for Cc1c(Nc2cc[nH]c(=O)c2C(=O)Nc2ccc(N3CCC(C4CC4)CC3)cc2)cnc2c1NCCO2 on recombinant full length HPK-1 enzyme (Homo sapiens (Human)) and write it down.
Reply | 10 to 100 nM

Ask | Recall the reported IC50 of Cc1c(Nc2cc[nH]c(=O)c2C(=O)Nc2cnc(-n3nccn3)c(Cl)c2)cnc2c1NCCO2 when tested on recombinant full length HPK-1 enzyme (Homo sapiens (Human)).
Reply | 100 to 1000 nM

Ask | Given Cc1c(Nc2cc[nH]c(=O)c2C(=O)Nc2ccc(C[C@H]3COC(=O)N3)cc2)cnc2c1NCCO2 , report its IC50 on recombinant full length HPK-1 enzyme (Homo sapiens (Human)).
Reply | 10 to 100 nM

* * *

subject.of.test: recombinant full length HPK-1 enzyme (Homo sapiens (Human), UniProt Q92918)
Sequence (Q92918 whole entry, species assumed): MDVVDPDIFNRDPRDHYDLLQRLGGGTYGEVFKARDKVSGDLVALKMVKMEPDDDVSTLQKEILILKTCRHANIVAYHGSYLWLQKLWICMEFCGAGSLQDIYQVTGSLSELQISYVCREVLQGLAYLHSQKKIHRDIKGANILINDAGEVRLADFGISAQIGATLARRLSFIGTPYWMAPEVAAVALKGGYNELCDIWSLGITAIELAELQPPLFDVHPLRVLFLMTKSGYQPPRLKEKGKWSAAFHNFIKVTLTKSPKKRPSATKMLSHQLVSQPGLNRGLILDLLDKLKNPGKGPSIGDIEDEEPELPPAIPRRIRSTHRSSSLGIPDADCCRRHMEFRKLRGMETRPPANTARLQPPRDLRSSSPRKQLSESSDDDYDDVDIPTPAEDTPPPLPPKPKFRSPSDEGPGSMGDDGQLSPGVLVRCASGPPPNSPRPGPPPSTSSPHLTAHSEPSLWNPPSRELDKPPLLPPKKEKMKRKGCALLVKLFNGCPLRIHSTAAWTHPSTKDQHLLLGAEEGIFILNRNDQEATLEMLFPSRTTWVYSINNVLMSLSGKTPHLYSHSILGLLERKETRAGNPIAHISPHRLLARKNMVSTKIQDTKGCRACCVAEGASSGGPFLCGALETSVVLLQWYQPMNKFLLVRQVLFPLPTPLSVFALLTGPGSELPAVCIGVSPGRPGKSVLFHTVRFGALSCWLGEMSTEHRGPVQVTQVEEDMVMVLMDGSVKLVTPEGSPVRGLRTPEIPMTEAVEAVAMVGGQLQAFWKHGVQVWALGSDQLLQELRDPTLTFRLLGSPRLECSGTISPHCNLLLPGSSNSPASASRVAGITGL
procedure.summary: HPK-1 biochemical enzyme assay (ADP-Glo kinase inhibition)
condition.set: recombinant full length HPK-1 6.8 nM, 10 μM ATP, 12.5 μM MBP, 30 mins at 25° C.
pIC50: −log10 of the molar value.
readout.label: pIC50

Example entries begin here.
INSERT INTO results (compound, readout_label, assay_result) VALUES
  ('Cc1c(Nc2cc[nH]c(=O)c2C(=O)Nc2ccc(N3CCCC3CO)cc2)cnc2c1NCCO2 (stereo not drawn)', 'pIC50', '7.00 to 8.00'),
  ('Cc1c(Nc2cc[nH]c(=O)c2C(=O)Nc2cccc(S(=O)(=O)CCO)c2)cnc2c1NCCO2', 'pIC50', '6.00 to 7.00'),
  ('Cc1nc2cc(NC(=O)c3c(Nc4cnc5c(c4C)NCCO5)cc[nH]c3=O)ccc2[nH]1', 'pIC50', '7.00 to 8.00'),
  ('Cc1c(Nc2cc[nH]c(=O)c2C(=O)Nc2ccc(N3CCN(C4CCCC4)CC3)c(F)c2)cnc2c1NCCO2', 'pIC50', '≥ 8.00');

Alright, here's another compound for you.
Ask | // fetch pIC50 for Cc1c(Nc2cc[nH]c(=O)c2C(=O)Nc2ccc(N3CCN(C(=O)C(C)N(C)C)CC3)cc2)cnc2c1NCCO2 (stereo not drawn) ; system: recombinant full length HPK-1 enzyme (Homo sapiens (Human), UniProt Q92918)
Reply | 7.00 to 8.00
